Experiment: Stability of peptides in simulated intestinal fluid (pH 7.5)
Assay type: in vitro ADME
Settings: simulated intestinal fluid, 24 h, 2 μM, pH 7.5
Where a SMILES comes first, the peptide text is derived from it. [ ]: non-standard residue; d: D form. ξ: configuration not given here. ξαMePhe(2-F) = CC(N)(Cc1ccccc1F)C(=O)O; Cit = NC(=O)NCCC[C@H](N)C(=O)O; Nle = CCCC[C@H](N)C(=O)O; Aib = CC(C)(N)C(=O)O
Outcome Measure: % degradation of peptides in 24 h when incubated with simulated intestinal fluid (%)
A number alone suffices; assume %.

Input CCCC[C@H](NC(=O)C(C)(Cc1ccccc1F)NC(=O)[C@H](CCC(N)=O)NC(=O)[C@@H](NC(=O)[C@H](CCC(=O)O)NC(=O)C(C)(C)NC(=O)[C@@H](NC(=O)C(C)(C)N)C(C)C)[C@@H](C)CC)C(=O)N[C@@H](Cc1c[nH]cn1)C(=O)N[C@@H](CCC(N)=O)C(=O)N[C@@H](CCCNC(N)=O)C(=O)N[C@@H](C)C(=O)N[C@@H](CCCNC(N)=O)C(=O)NC(C)(Cc1ccccc1F)C(N)=O (stereo partly shown) [Seq. ID. 345] (H-[Aib]V[Aib]EIQ[ξαMePhe(2-F)][Nle]HQ[Cit]A[Cit][ξαMePhe(2-F)]-NH2) . Output % degradation of peptides in 24 h when incubated with simulated intestinal fluid: 100

====

Experiment: Stability of peptides in human plasma
Type: in vitro ADME
Settings: human, plasma
Where a SMILES comes first, the peptide text is derived from it. [ ]: non-standard residue; d: D form. ξ: configuration not given here. ξαMeBip(2'-Et,4'-OMe) = CCc1cc(OC)ccc1-c1ccc(CC(C)(N)C(=O)O)cc1; ξαMePhe(2,6-F2) = CC(N)(Cc1c(F)cccc1F)C(=O)O; ξαMePhe(2-F) = CC(N)(Cc1ccccc1F)C(=O)O; hhPhe = N[C@@H](CCCc1ccccc1)C(=O)O; hArg = N=C(N)NCCCC[C@H](N)C(=O)O; Nle = CCCC[C@H](N)C(=O)O; Ac5c = NC1(C(=O)O)CCCC1; Aib = CC(C)(N)C(=O)O
Readings of half-life for the listed compounds

INSERT INTO assay_data (compound, outcome_measure, value) VALUES
  ('CCCC[C@H](NC(=O)C(C)(Cc1ccccc1F)NC(=O)[C@H](CCC(N)=O)NC(=O)[C@@H](NC(=O)[C@H](CCC(=O)O)NC(=O)C(C)(C)NC(=O)[C@@H](NC(=O)C(C)(C)N)C(C)C)[C@@H](C)CC)C(=O)N[C@@H](Cc1c[nH]cn1)C(=O)N[C@@H](CCC(N)=O)C(=O)NC(C)(Cc1c(F)cccc1F)C(=O)NC(C)(C)C(=O)NC(C)(C)C(=O)NC(C)(Cc1ccccc1F)C(N)=O (stereo partly shown) [Seq. ID. 490] (H-[Aib]V[Aib]EIQ[ξαMePhe(2-F)][Nle]HQ[ξαMePhe(2,6-F2)][Aib][Aib][ξαMePhe(2-F)]-NH2)', 'half-life', '> 24 h'),
  ('CCc1cc(OC)ccc1-c1ccc(CC(C)(NC(=O)[C@H](CCCCN)NC(=O)[C@H](C)NC(=O)[C@H](CCCCNC(=N)N)NC(=O)[C@H](CCC(N)=O)NC(=O)[C@H](Cc2c[nH]cn2)NC(=O)[C@H](CCSC)NC(=O)[C@H](CC(C)C)NC(=O)[C@H](CCC(N)=O)NC(=O)[C@@H](NC(=O)[C@H](CCC(=O)O)NC(=O)C(C)(C)NC(=O)[C@@H](NC(=O)C(C)(C)N)C(C)C)[C@@H](C)CC)C(=O)N[C@@H](CCCc2ccccc2)C(N)=O)cc1 (stereo partly shown) [Seq. ID. 890] (H-[Aib]V[Aib]EIQLMHQ[hArg]AK[ξαMeBip(2''-Et,4''-OMe)][hhPhe]-NH2)', 'half-life', '> 24 h'),
  ('CCCC[C@H](NC(=O)C(C)(Cc1c(F)cccc1F)NC(=O)[C@H](CCC(N)=O)NC(=O)[C@@H](NC(=O)[C@H](CCC(=O)O)NC(=O)C(C)(C)NC(=O)[C@@H](NC(=O)C1(N)CCCC1)C(C)C)[C@@H](C)CC)C(=O)N[C@@H](Cc1c[nH]cn1)C(=O)N[C@@H](CCC(N)=O)C(=O)N[C@@H](CCCCNC(=N)N)C(=O)NC(C)(C)C(=O)NC(C)(Cc1c(F)cccc1F)C(=O)NC(C)(Cc1c(F)cccc1F)C(N)=O (stereo partly shown) [Seq. ID. 240] (H-[Ac5c]V[Aib]EIQ[ξαMePhe(2,6-F2)][Nle]HQ[hArg][Aib][ξαMePhe(2,6-F2)][ξαMePhe(2,6-F2)]-NH2)', 'half-life', '8 h');

Okay, now this compound:
Input CCCC[C@H](NC(=O)C(C)(Cc1c(F)cccc1F)NC(=O)[C@H](CCC(N)=O)NC(=O)[C@@H](NC(=O)[C@H](CCC(=O)O)NC(=O)C(C)(C)NC(=O)[C@@H](NC(=O)C1(N)CCCC1)C(C)C)[C@@H](C)CC)C(=O)N[C@@H](Cc1c[nH]cn1)C(=O)N[C@@H](CCC(N)=O)C(=O)NC(C)(C)C(=O)NC(C)(C)C(=O)NC(C)(C)C(=O)NC(C)(Cc1ccccc1F)C(N)=O (stereo partly shown) [Seq. ID. 560] (H-[Ac5c]V[Aib]EIQ[ξαMePhe(2,6-F2)][Nle]HQ[Aib][Aib][Aib][ξαMePhe(2-F)]-NH2) . Output half-life: 8 h

====

Experiment: Stability of peptides in simulated gastric fluid (pH 1.5; HCl, NaCl and Pepsin)
Type: in vitro ADME
Details: simulated gi fluid, pH 1.5
Where a SMILES comes first, the peptide text is derived from it. [ ]: non-standard residue; d: D form. ξ: configuration not given here. ξαMePhe(2,6-F2) = CC(N)(Cc1c(F)cccc1F)C(=O)O; ξαMePhe(2-F) = CC(N)(Cc1ccccc1F)C(=O)O; Nle = CCCC[C@H](N)C(=O)O; Ac5c = NC1(C(=O)O)CCCC1; Aib = CC(C)(N)C(=O)O
Outcome Measure: half-life (t1/2) in simulated gastric fluid

INSERT INTO results (compound, value) VALUES
  ('CCCC[C@H](NC(=O)C(C)(Cc1c(F)cccc1F)NC(=O)[C@H](CCC(N)=O)NC(=O)[C@@H](NC(=O)[C@H](CCC(=O)O)NC(=O)C(C)(C)NC(=O)[C@@H](NC(=O)C1(N)CCCC1)C(C)C)[C@@H](C)CC)C(=O)N[C@@H](Cc1c[nH]cn1)C(=O)N[C@@H](CCC(N)=O)C(=O)NC(C)(C)C(=O)NC(C)(C)C(=O)NC(C)(C)C(=O)NC(C)(Cc1ccccc1F)C(N)=O (stereo partly shown) [Seq. ID. 560] (H-[Ac5c]V[Aib]EIQ[ξαMePhe(2,6-F2)][Nle]HQ[Aib][Aib][Aib][ξαMePhe(2-F)]-NH2)', '(8) h');

====

Readings of metabolised at 24 h, 2 μM for the listed compounds
Assay: Stability of peptides in human plasma
Format: in vitro ADME
Conditions: human, plasma, pH 7.8
Where a SMILES comes first, the peptide text is derived from it. [ ]: non-standard residue; d: D form. ξ: configuration not given here. ξBip(2'-Et-4'-OMe) = CCc1cc(OC)ccc1-c1ccc(CC(N)C(=O)O)cc1; αMePhe(2,6-F2) = C[C@](N)(Cc1c(F)cccc1F)C(=O)O; ξαMePhe(2,6-F2) = CC(N)(Cc1c(F)cccc1F)C(=O)O; ξαMePhe(2-F) = CC(N)(Cc1ccccc1F)C(=O)O; hhPhe = N[C@@H](CCCc1ccccc1)C(=O)O; hArg = N=C(N)NCCCC[C@H](N)C(=O)O; Cit = NC(=O)NCCC[C@H](N)C(=O)O; ξαMeF = CC(N)(Cc1ccccc1)C(=O)O; ξαMeM = CSCCC(C)(N)C(=O)O; Nle = CCCC[C@H](N)C(=O)O; ξαMeP = CC1(C(=O)O)CCCN1; Ac5c = NC1(C(=O)O)CCCC1; Ac3c = NC1(C(=O)O)CC1; Aib = CC(C)(N)C(=O)O
A number alone suffices; assume %.

Example entries begin here.
INSERT INTO assay_data (compound, outcome_measure, units_label, value) VALUES
  ('CCc1cc(OC)ccc1-c1ccc(CC(NC(=O)[C@H](CCCCN)NC(=O)[C@H](C)NC(=O)[C@H](CCCCNC(=N)N)NC(=O)[C@H](CCC(N)=O)NC(=O)[C@H](Cc2c[nH]cn2)NC(=O)[C@H](CCSC)NC(=O)[C@H](CC(C)C)NC(=O)[C@H](CCC(N)=O)NC(=O)[C@@H](NC(=O)[C@H](CCC(=O)O)NC(=O)C(C)(C)NC(=O)[C@@H](NC(=O)C2(N)CCCC2)C(C)C)[C@@H](C)CC)C(N)=O)cc1 (some centres unmarked) [Seq. ID. 650] (H-[Ac5c]V[Aib]EIQLMHQ[hArg]AK[ξBip(2''-Et-4''-OMe)]-NH2)', 'metabolised at 24 h, 2 μM', '%', 70),
  ('CCCC[C@H](NC(=O)[C@](C)(Cc1c(F)cccc1F)NC(=O)[C@H](CCC(N)=O)NC(=O)[C@@H](NC(=O)[C@H](CCC(=O)O)NC(=O)C(C)(C)NC(=O)[C@@H](NC(=O)C(C)(C)N)C(C)C)[C@@H](C)CC)C(=O)N[C@@H](Cc1c[nH]cn1)C(=O)N[C@@H](CCC(N)=O)C(=O)NC(C)(C)C(=O)NC(C)(C)C(=O)N[C@@H](CCCNC(N)=O)C(=O)N[C@@](C)(Cc1c(F)cccc1F)C(N)=O [Seq. ID. 550] (H-[Aib]V[Aib]EIQ[αMePhe(2,6-F2)][Nle]HQ[Aib][Aib][Cit][αMePhe(2,6-F2)]-NH2)', 'metabolised at 24 h, 2 μM', '%', 80),
  ('CCCC[C@H](NC(=O)C(C)(Cc1ccccc1F)NC(=O)[C@H](CCC(N)=O)NC(=O)[C@@H](NC(=O)[C@H](CCC(=O)O)NC(=O)C(C)(C)NC(=O)[C@@H](NC(=O)C(C)(C)N)C(C)C)[C@@H](C)CC)C(=O)N[C@@H](Cc1c[nH]cn1)C(=O)N[C@@H](CCC(N)=O)C(=O)NC(C)(Cc1c(F)cccc1F)C(=O)NC(C)(C)C(=O)NC(C)(C)C(=O)NC(C)(Cc1ccccc1F)C(N)=O (some centres unmarked) [Seq. ID. 490] (H-[Aib]V[Aib]EIQ[ξαMePhe(2-F)][Nle]HQ[ξαMePhe(2,6-F2)][Aib][Aib][ξαMePhe(2-F)]-NH2)', 'metabolised at 24 h, 2 μM', '%', 0),
  ('CCCC[C@H](NC(=O)C(C)(Cc1ccccc1F)NC(=O)[C@H](CCC(N)=O)NC(=O)[C@@H](NC(=O)[C@H](CCC(=O)O)NC(=O)C(C)(C)NC(=O)[C@@H](NC(=O)C1(N)CC1)C(C)C)[C@@H](C)CC)C(=O)N[C@@H](Cc1c[nH]cn1)C(=O)N[C@@H](CCC(N)=O)C(=O)N[C@@H](CCCCNC(=N)N)C(=O)NC(C)(C)C(=O)N[C@@H](CCCCN)C(=O)NC(C)(Cc1c(F)cccc1F)C(N)=O (some centres unmarked) [Seq. ID. 95] (H-[Ac3c]V[Aib]EIQ[ξαMePhe(2-F)][Nle]HQ[hArg][Aib]K[ξαMePhe(2,6-F2)]-NH2)', 'metabolised at 24 h, 2 μM', '%', 80),
  ('CC[C@H](C)[C@H](NC(=O)[C@H](CCC(=O)O)NC(=O)C(C)(C)NC(=O)[C@@H](NC(=O)C(C)(C)N)C(C)C)C(=O)N[C@@H](CCC(N)=O)C(=O)N[C@@H](CC(C)C)C(=O)NC(C)(CCSC)C(=O)N[C@@H](Cc1c[nH]cn1)C(=O)N[C@@H](CCC(N)=O)C(=O)N[C@@H](CCCCNC(=N)N)C(=O)N[C@@H](C)C(=O)N[C@@H](CCCCNC(=N)N)C(=O)NC(C)(Cc1ccccc1F)C(=O)N[C@@H](CCCc1ccccc1)C(N)=O (some centres unmarked) [Seq. ID. 930] (H-[Aib]V[Aib]EIQL[ξαMeM]HQ[hArg]A[hArg][ξαMePhe(2-F)][hhPhe]-NH2)', 'metabolised at 24 h, 2 μM', '%', 0);

Input CCCC[C@H](NC(=O)C(C)(Cc1c(F)cccc1F)NC(=O)[C@H](CCC(N)=O)NC(=O)[C@@H](NC(=O)[C@H](CCC(=O)O)NC(=O)C1(NC(=O)[C@@H](NC(=O)C2(N)CCCC2)C(C)C)CCCC1)[C@@H](C)CC)C(=O)N[C@@H](Cc1c[nH]cn1)C(=O)N[C@@H](CCC(N)=O)C(=O)N[C@@H](CCCCNC(=N)N)C(=O)N[C@@H](C)C(=O)N[C@@H](CCCCN)C(=O)NC(C)(Cc1c(F)cccc1F)C(N)=O (some centres unmarked) [Seq. ID. 115] (H-[Ac5c]V[Ac5c]EIQ[ξαMePhe(2,6-F2)][Nle]HQ[hArg]AK[ξαMePhe(2,6-F2)]-NH2) . Output metabolised at 24 h, 2 μM: 78

Input CCCC[C@H](NC(=O)C(C)(Cc1ccccc1F)NC(=O)[C@H](CCC(N)=O)NC(=O)[C@@H](NC(=O)[C@H](CCC(=O)O)NC(=O)C1(NC(=O)[C@@H](NC(=O)C2(N)CCCC2)C(C)C)CCCC1)[C@@H](C)CC)C(=O)N[C@@H](Cc1c[nH]cn1)C(=O)N[C@@H](CCC(N)=O)C(=O)N[C@@H](CCCCNC(=N)N)C(=O)N1CCCC1(C)C(=O)N[C@@H](CCCCN)C(=O)NC(C)(Cc1c(F)cccc1F)C(N)=O (some centres unmarked) [Seq. ID. 100] (H-[Ac5c]V[Ac5c]EIQ[ξαMePhe(2-F)][Nle]HQ[hArg][ξαMeP]K[ξαMePhe(2,6-F2)]-NH2) . Output metabolised at 24 h, 2 μM: 0

Input CCCC[C@H](NC(=O)C(C)(Cc1ccccc1F)NC(=O)[C@H](CCC(N)=O)NC(=O)[C@@H](NC(=O)[C@H](CCC(=O)O)NC(=O)C(C)(C)NC(=O)[C@@H](NC(=O)C(C)(C)N)C(C)C)[C@@H](C)CC)C(=O)N[C@@H](Cc1c[nH]cn1)C(=O)N[C@@H](CCC(N)=O)C(=O)N[C@@H](CCCCNC(=N)N)C(=O)N1CCCC1(C)C(=O)N[C@@H](CCCCN)C(=O)NC(C)(Cc1ccccc1)C(N)=O (some centres unmarked) [Seq. ID. 25] (H-[Aib]V[Aib]EIQ[ξαMePhe(2-F)][Nle]HQ[hArg][ξαMeP]K[ξαMeF]-NH2) . Output metabolised at 24 h, 2 μM: 75

Where do these numbers come from? They come from patent US8383581B2.
